Tested on: WIL2-NS (Non-Cancerous)
Test: Bliss excess, mean over the matrix (fraction); higher = more synergy
value_kind: Bliss excess
// no unit, no text: just the number

compound	Bliss excess
C=CCn1c(=O)c2cnc(Nc3ccc(N4CCN(C)CC4)cc3)nc2n1-c1cccc(C(C)(C)O)n1 [AZD1775] + C[C@@H]1COCCN1C2=NC(=NC(=C2)C3(CC3)[S@](=N)(=O)C)C4=C5C=CNC5=NC=C4 [AZD6738] (first compound max 1 µM, partner max 10 µM)	0.0269

Kindly consider the entry below.
Problem: For the compound shown here, NC1(C(=O)N[C@@H](CCO)c2ccc(Cl)cc2)CCN(c2ncnc3[nH]ccc23)CC1 [Capivasertib] + COc1nnc2ccc(N3CCC(c4ccc(OCCN5CCN(C)C(=O)[C@H]5C)cc4)CC3)nn12 [AZD5153] (first compound max 10 µM, 7x7, partner max 1 µM) , give the reported Bliss excess.
Result: -0.0933

###

Tested on: NCI-H1792 (Lung Adenocarcinoma)
Assay: Bliss excess, mean over the matrix (fraction); higher = more synergy
value_kind: Bliss excess
Write the value as a bare number.

Field: example entries. Status: answers known.
compound	Bliss excess
CCc1c2c(nc3ccc(O)cc13)-c1cc3c(c(=O)n1C2)COC(=O)[C@]3(O)CC [SN-38] + CN(C)CCCOc1ccc(-c2ccc3ncc4c(c3c2)n(C2CCOCC2)c(=O)n4C)cn1 [AZD0156] (first compound max 0.3 µM, 7x7, partner max 1 µM)	0.0517
CC(=O)c1c(C)c2cnc(Nc3ccc(N4CCNCC4)cn3)nc2n(C2CCCC2)c1=O [Palbociclib] + CC1(C)CCC(CN2CCN(c3ccc(C(=O)NS(=O)(=O)c4ccc(NCC5CCOCC5)c([N+](=O)[O-])c4)c(Oc4cnc5[nH]ccc5c4)c3)CC2)=C(c2ccc(Cl)cc2)C1 [Venetoclax] (first compound max 10 µM, 7x7, partner max 1 µM)	-0.0103

Next compound, Bliss excess to be filled in.
Problem: Fill in the blank: the reported Bliss excess of CS(=O)(=O)CCNCc1ccc(-c2ccc3ncnc(Nc4ccc(OCc5cccc(F)c5)c(Cl)c4)c3c2)o1 [Lapatinib] + NC1(c2ccc(-c3nc4ccn5c(=O)[nH]nc5c4cc3-c3ccccc3)cc2)CCC1 [MK-2206] (first compound max 10 µM, 7x7, partner max 10 µM) is ____.
Result: 0.0243

###

Tested on: SR (Other Blood Carcinomas)
Test: combination Emax (second highest fraction inhibited in the dose matrix, 72 h); higher = more inhibition; extreme values may be limits of the assay
Reported values of combination Emax for individual entries
# respond with the number and nothing more

Completed entries (count: 5):
compound	system	combination Emax
CN(C)CCCOc1ccc(-c2ccc3ncc4c(c3c2)n(C2CCOCC2)c(=O)n4C)cn1 [AZD0156] + C[C@@H]1COCCN1C2=NC(=NC(=C2)C3(CC3)[S@](=N)(=O)C)C4=C5C=CNC5=NC=C4 [AZD6738] (first compound max 1 µM, 7x7, partner max 10 µM)	SR (Other Blood Carcinomas)	0.946
O=C(c1cc(Cc2n[nH]c(=O)c3ccccc23)ccc1F)N1CCN(C(=O)C2CC2)CC1 [Olaparib] + COc1nnc2ccc(N3CCC(c4ccc(OCCN5CCN(C)C(=O)[C@H]5C)cc4)CC3)nn12 [AZD5153] (first compound max 10 µM, 7x7, partner max 1 µM)	SR (Other Blood Carcinomas)	0.626
Cn1cnc2c(F)c(Nc3ccc(Br)cc3Cl)c(C(=O)NOCCO)cc21 [Selumetinib] + CC(C)n1c(=O)n(C)c2cnc3cc(F)c(-c4ccc(OCCCN5CCCCC5)nc4)cc3c21 [AZD1390] (first compound max 10 µM, 7x7, partner max 0.3 µM)	SR (Other Blood Carcinomas)	0.129
C=CCn1c(=O)c2cnc(Nc3ccc(N4CCN(C)CC4)cc3)nc2n1-c1cccc(C(C)(C)O)n1 [AZD1775] + C1CN(CCC1(C(=O)N[C@@H](CCO)C2=CC=C(C=C2)Cl)N)C3=NC=NC4=C3C=CN4 [Capivasertib] (first compound max 3 µM, partner max 3 µM)	SR (Other Blood Carcinomas)	0.999
CC1(C)CCC(CN2CCN(c3ccc(C(=O)NS(=O)(=O)c4ccc(NCC5CCOCC5)c([N+](=O)[O-])c4)c(Oc4cnc5[nH]ccc5c4)c3)CC2)=C(c2ccc(Cl)cc2)C1 [Venetoclax] + C=CCn1c(=O)c2cnc(Nc3ccc(N4CCN(C)CC4)cc3)nc2n1-c1cccc(C(C)(C)O)n1 [AZD1775] (first compound max 1 µM, partner max 1 µM)	SR (Other Blood Carcinomas)	0.995

Problem: Write down the reported combination Emax of Cc1c2c(nn1C)CSCc1cc(n(C)n1)CSc1cc(c3ccccc3c1)OCCCc1c(C(=O)O)n(C)c3c-2c(Cl)ccc13 [AZD5991] + CS(=O)(=O)CCNCc1ccc(-c2ccc3ncnc(Nc4ccc(OCc5cccc(F)c5)c(Cl)c4)c3c2)o1 [Lapatinib] (first compound max 1 µM, 7x7, partner max 10 µM) , test system: SR (Other Blood Carcinomas).
Result: 0.927

Problem: What measured combination Emax is associated with C=CCn1c(=O)c2cnc(Nc3ccc(N4CCN(C)CC4)cc3)nc2n1-c1cccc(C(C)(C)O)n1 [AZD1775] + CCc1c2c(nc3ccc(O)cc13)-c1cc3c(c(=O)n1C2)COC(=O)[C@]3(O)CC [SN-38] (first compound max 1 µM, partner max 0.3 µM) on SR (Other Blood Carcinomas)?
Result: 1

Problem: combination Emax of N#Cc1cnc(Nc2cc(NC[C@H]3CNCCO3)c(C(F)(F)F)cn2)cn1 [SRA737] + Nc1ccn([C@@H]2O[C@H](CO)[C@@H](O)C2(F)F)c(=O)n1 [Gemcitabine] (first compound max 10 µM, 7x7, partner max 0.3 µM) on SR (Other Blood Carcinomas)?
Result: 1

Problem: # get_value(readout= combination Emax, system= SR (Other Blood Carcinomas)) for COc1nnc2ccc(N3CCC(c4ccc(OCCN5CCN(C)C(=O)[C@H]5C)cc4)CC3)nn12 [AZD5153] + Cc1c2c(nn1C)CSCc1cc(n(C)n1)CSc1cc(c3ccccc3c1)OCCCc1c(C(=O)O)n(C)c3c-2c(Cl)ccc13 [AZD5991] (first compound max 1 µM, 7x7, partner max 1 µM)
Result: 0.968

Problem: Missing value: combination Emax, SR (Other Blood Carcinomas), entry CN(CCO)CC[C@H](CSc1ccccc1)Nc1ccc(S(=O)(=O)NC(=O)c2ccc(N3CCC([C@@H](O)c4ccccc4-c4ccc(Cl)cc4)CC3)cc2)cc1S(=O)(=O)C(F)(F)F [AZD4320] + C[C@@H](Nc1cc(F)cc(F)c1)c1cc(C(=O)N(C)C)cc2c(=O)cc(N3CCOCC3)oc12 [AZD8186] (first compound max 1 µM, 7x7, partner max 3 µM) . Fill in?
Result: 0.713

Problem: Recorded combination Emax for Cc1c2c(nn1C)CSCc1cc(n(C)n1)CSc1cc(c3ccccc3c1)OCCCc1c(C(=O)O)n(C)c3c-2c(Cl)ccc13 [AZD5991] + C[C@@H]1COCCN1C2=NC(=NC(=C2)C3(CC3)[S@](=N)(=O)C)C4=C5C=CNC5=NC=C4 [AZD6738] (first compound max 1 µM, 7x7, partner max 10 µM) with SR (Other Blood Carcinomas), please?
Result: 1

Problem: Any idea what combination Emax came out for CN(CCO)CC[C@H](CSc1ccccc1)Nc1ccc(S(=O)(=O)NC(=O)c2ccc(N3CCC([C@@H](O)c4ccccc4-c4ccc(Cl)cc4)CC3)cc2)cc1S(=O)(=O)C(F)(F)F [AZD4320] + CC(=O)O[C@H]1C(=O)[C@@]2(C)[C@H]([C@H](OC(=O)c3ccccc3)[C@]3(O)C[C@H](OC(=O)[C@H](O)[C@@H](NC(=O)c4ccccc4)c4ccccc4)C(C)=C1C3(C)C)[C@]1(OC(C)=O)CO[C@@H]1C[C@@H]2O [Paclitaxel] (first compound max 1 µM, 7x7, partner max 3 µM) on SR (Other Blood Carcinomas)?
Result: 1

Problem: Recall the recorded combination Emax for NC1(C(=O)N[C@@H](CCO)c2ccc(Cl)cc2)CCN(c2ncnc3[nH]ccc23)CC1 [Capivasertib] + COc1nnc2ccc(N3CCC(c4ccc(OCCN5CCN(C)C(=O)[C@H]5C)cc4)CC3)nn12 [AZD5153] (first compound max 10 µM, 7x7, partner max 1 µM) with SR (Other Blood Carcinomas) and state it.
Result: 0.769

###

System: MKN28 (Gastric Carcinoma)
Assay: combination Emax (second highest fraction inhibited in the dose matrix, 72 h); higher = more inhibition; extreme values may be limits of the assay
Decision: combination Emax compared against 0.5; not below it gives yes, below it gives no.

Some solved entries appear below for comparison.
molecule	system	label_class
Cc1nc(-c2cn3c(n2)-c2ccc(-c4cnn(C(C)(C)C(N)=O)c4)cc2OCC3)n(C(C)C)n1 [Taselisib] + O=C(Nc1ccc2[nH]nc(-c3ccncc3)c2c1)[C@@H]1CCN(CC(=O)N2CCN(c3ccc(-c4ncccn4)cc3)CC2)C1 [SCH772984] (first compound max 10 µM, 7x7, partner max 5 µM)	MKN28 (Gastric Carcinoma)	no
NC1(C(=O)N[C@@H](CCO)c2ccc(Cl)cc2)CCN(c2ncnc3[nH]ccc23)CC1 [Capivasertib] + Cn1cnc2c(F)c(Nc3ccc(Br)cc3Cl)c(C(=O)NOCCO)cc21 [Selumetinib] (first compound max 10 µM, 7x7, partner max 10 µM)	MKN28 (Gastric Carcinoma)	no

Problem: Is combination Emax at least 0.5? Consider C=CCn1c(=O)c2cnc(Nc3ccc(N4CCN(C)CC4)cc3)nc2n1-c1cccc(C(C)(C)O)n1 [AZD1775] + Nc1ccn([C@@H]2O[C@H](CO)[C@@H](O)C2(F)F)c(=O)n1 [Gemcitabine] (first compound max 1 µM, partner max 0.3 µM)
Result: yes

Problem: For this molecule, is measured combination Emax 0.5 or higher? CC1(C)CCC(CN2CCN(c3ccc(C(=O)NS(=O)(=O)c4ccc(NCC5CCOCC5)c([N+](=O)[O-])c4)c(Oc4cnc5[nH]ccc5c4)c3)CC2)=C(c2ccc(Cl)cc2)C1 [Venetoclax] + C1CN(CCC1(C(=O)N[C@@H](CCO)C2=CC=C(C=C2)Cl)N)C3=NC=NC4=C3C=CN4 [Capivasertib] (first compound max 1 µM, 7x7, partner max 3 µM)
Result: no

Problem: Does the reported combination Emax for Cc1cc2ncnn2cc1Nc1ncc2c(n1)n(C1CCOCC1)c(=O)n2C [AZD7648] + CCN(CCO)CCCOc1ccc2c(Nc3cc(CC(=O)Nc4cccc(F)c4)[nH]n3)ncnc2c1 [AZD2811] (first compound max 10 µM, 7x7, partner max 1 µM) fall at or above the 0.5 mark?
Result: no

Problem: Could you verify whether the entry CN(CCO)CC[C@H](CSc1ccccc1)Nc1ccc(S(=O)(=O)NC(=O)c2ccc(N3CCC([C@@H](O)c4ccccc4-c4ccc(Cl)cc4)CC3)cc2)cc1S(=O)(=O)C(F)(F)F [AZD4320] + CC(=O)O[C@H]1C(=O)[C@@]2(C)[C@H]([C@H](OC(=O)c3ccccc3)[C@]3(O)C[C@H](OC(=O)[C@H](O)[C@@H](NC(=O)c4ccccc4)c4ccccc4)C(C)=C1C3(C)C)[C@]1(OC(C)=O)CO[C@@H]1C[C@@H]2O [Paclitaxel] (first compound max 1 µM, 7x7, partner max 3 µM) shows combination Emax of no less than 0.5?
Result: yes

Problem: Threshold query (combination Emax >= 0.5) on CN(C)CCCOc1ccc(-c2ccc3ncc4c(c3c2)n(C2CCOCC2)c(=O)n4C)cn1 [AZD0156] + C=CCn1c(=O)c2cnc(Nc3ccc(N4CCN(C)CC4)cc3)nc2n1-c1cccc(C(C)(C)O)n1 [AZD1775] (first compound max 1 µM, partner max 1 µM)
Result: no

// provenance: the supplement of paper PMC11061612
